measured_target: UniProt:P08034
Sequence (P08034 whole entry): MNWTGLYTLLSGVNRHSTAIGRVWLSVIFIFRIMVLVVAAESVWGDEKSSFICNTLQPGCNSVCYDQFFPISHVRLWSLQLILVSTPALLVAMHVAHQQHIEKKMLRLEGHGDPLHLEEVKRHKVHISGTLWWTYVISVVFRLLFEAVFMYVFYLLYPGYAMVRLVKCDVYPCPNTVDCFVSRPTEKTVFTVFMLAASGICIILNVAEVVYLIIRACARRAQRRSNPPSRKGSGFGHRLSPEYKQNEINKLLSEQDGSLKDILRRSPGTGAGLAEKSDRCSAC
protocol_text: tryptophan fluorescence quenching; cryo-EM of Cx32 GJC at […] Å; dye uptake and gap-FRAP
Assay type: binding
Set-up: gene GJB1; purified Cx32 (gap junction channel)
pKd: −log10 of the molar value.
property_measured: pKd

[
  {
    "molecule": "O[C@H](c1cc(C(F)(F)F)nc2c(C(F)(F)F)cccc12)[C@@H]1CCCCN1 (racemic) [MFQ, mefloquine]",
    "property_measured": "pKd",
    "experimental_value": 4.37
  }
]
